test system: Erysiphe graminis f. sp. tritici; assay: Test L: wheat powdery mildew, preventive spray on wheat seedlings; conditions: 40 ppm (*)
Marks after values point to notes of the source that are not given here.
Test L disease control rating values for the compounds below.

In the examples that follow, each entry is paired with its recorded Test L disease control rating.
{"columns": ["Compound", "Test L disease control rating"],
 "data": [
  ["CCn1c(-c2c(F)cccc2F)c(Cl)nc(-n2cccn2)c1=O [compound 184]", "98* %"],
  ["CC(C)Cn1c(-c2ccc(C(C)(C)C)cc2)c(Cl)nc(-n2cccn2)c1=O [compound 74]", "75* %"],
  ["CC(CF)n1c(-c2c(F)cccc2F)c(Cl)nc(-n2cccn2)c1=O (stereo not drawn) [compound 238]", "74* %"]
]}

Exam item: Look up Test L disease control rating of O=c1c(-n2cccn2)nc(Cl)c(-c2c(F)cccc2F)n1Cc1ccco1 [compound 187] and report it.
Marked response: 0* %

Exam item: Look up Test L disease control rating of Cc1cc(C)cc(-c2c(Cl)nc(-n3cncn3)c(=O)n2CC(C)C)c1 [compound 136] and report it.
Marked response: 0* %

Exam item: Look up Test L disease control rating of CCCCn1c(-c2c(F)cc(F)cc2F)c(Cl)nc(-n2ccc(C)n2)c1=O [compound 228] and report it.
Marked response: 99* %

Exam item: Look up Test L disease control rating of CC(C)Cn1c(-c2ccoc2)c(Cl)nc(-n2cncn2)c1=O [compound 158] and report it.
Marked response: 0* %

Exam item: Look up Test L disease control rating of CC(C)Cn1c(-c2ccccc2)c(Cl)nc(-n2cncn2)c1=O [compound 173] and report it.
Marked response: 0* %
